Tgt: T1, plasmin (human, UniProt P00747)
T1 chain: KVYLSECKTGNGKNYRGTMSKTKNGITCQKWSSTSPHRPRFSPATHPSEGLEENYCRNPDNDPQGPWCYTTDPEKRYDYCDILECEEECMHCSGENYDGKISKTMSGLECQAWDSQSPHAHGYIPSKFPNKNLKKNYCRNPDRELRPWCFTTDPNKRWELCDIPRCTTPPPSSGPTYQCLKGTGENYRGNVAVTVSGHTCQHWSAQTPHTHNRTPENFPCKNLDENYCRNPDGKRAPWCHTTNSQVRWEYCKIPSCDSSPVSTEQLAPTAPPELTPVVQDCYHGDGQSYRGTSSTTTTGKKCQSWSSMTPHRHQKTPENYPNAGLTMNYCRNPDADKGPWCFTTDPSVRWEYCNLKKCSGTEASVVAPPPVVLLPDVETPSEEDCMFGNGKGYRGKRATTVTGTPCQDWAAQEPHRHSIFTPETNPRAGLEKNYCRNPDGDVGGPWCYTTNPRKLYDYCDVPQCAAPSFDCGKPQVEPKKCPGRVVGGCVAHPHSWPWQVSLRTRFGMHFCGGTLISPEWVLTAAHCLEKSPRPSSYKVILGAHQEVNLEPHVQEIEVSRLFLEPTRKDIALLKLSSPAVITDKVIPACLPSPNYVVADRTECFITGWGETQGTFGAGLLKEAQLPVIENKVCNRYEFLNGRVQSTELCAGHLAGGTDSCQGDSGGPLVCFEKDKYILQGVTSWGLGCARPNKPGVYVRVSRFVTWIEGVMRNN
Listed here are binders together with their documented Ki.
Reply numerically in nM, unit not repeated.

Some solved cases for reference:
[[record]]
binder = "KD1 R24K (protein) DAAQEPTGNNAEICLLPLDYGPCKALLLRYYYDRYTQSCRQFLYGGCEGNANNFYTWEACDDACWRIEKVPKV"
measurement_type = "Ki"
observed_value = 1.02

[[record]]
binder = "KD1 R24K/L26R (protein) DAAQEPTGNNAEICLLPLDYGPCKARLLRYYYDRYTQSCRQFLYGGCEGNANNFYTWEACDDACWRIEKVPKV"
measurement_type = "Ki"
observed_value = 1.25


Now for a further binder.
Which value of Ki has been reported for KD1 wild-type (protein) DAAQEPTGNNAEICLLPLDYGPCRALLLRYYYDRYTQSCRQFLYGGCEGNANNFYTWEACDDACWRIEKVPKV in the records?
6.4

These measurements were taken from patent US20080026998.
